pKi: −log10 of the molar value.
pKi values for 5-hydroxytryptamine receptor 1D (Homo sapiens) compiled from several publications are listed below.
pKi of 7 or higher: YES. Under 7: NO.

compound=O=c1ccc2ccc(OCCCCN3CCN(c4cccc5sccc45)CC3)cc2[nH]1 measurement_target="5-hydroxytryptamine receptor 1D (Homo sapiens)" assigned_category=YES
compound=CN(C)CCc1c[nH]c2ccc(C[C@H]3COC(=O)N3)cc12 measurement_target="5-hydroxytryptamine receptor 1D (Homo sapiens)" assigned_category=YES
compound=O=C(Cc1ccccc1)Nc1nc2ccc(Cl)cc2c2nc(-c3ccco3)nn12 measurement_target="5-hydroxytryptamine receptor 1D (Homo sapiens)" assigned_category=NO
compound=COc1ccc(NS(=O)(=O)c2sc3ccc(Cl)cc3c2C)cc1N1CCNCC1 measurement_target="5-hydroxytryptamine receptor 1D (Homo sapiens)" assigned_category=NO
compound=COc1ccc(NC(=O)c2ccc(-c3ccc(-c4noc(C)n4)cc3C)cc2)cc1OCCN(C)C measurement_target="5-hydroxytryptamine receptor 1D (Homo sapiens)" assigned_category=YES
compound=CCc1ccc(OCc2ccccc2C(=O)Nc2ccc3nc(C)cc(N)c3c2)cc1 measurement_target="5-hydroxytryptamine receptor 1D (Homo sapiens)" assigned_category=NO
compound=CN1CCN(c2ccc(Nc3c4ccccc4nc4ccccc34)cc2)CC1 measurement_target="5-hydroxytryptamine receptor 1D (Homo sapiens)" assigned_category=NO
compound=CCCCN1CCC(COC(=O)c2cc(Cl)c(N)c3c2OCCO3)CC1 measurement_target="5-hydroxytryptamine receptor 1D (Homo sapiens)" assigned_category=NO
compound="Cc1nc2n(c(=O)c1CCN1CCC(c3noc4cc(F)ccc34)CC1)CCCC2O (stereo not given)" measurement_target="5-hydroxytryptamine receptor 1D (Homo sapiens)" assigned_category=YES
